- subject of test: GlcNAc(a1-4)Gal(b1-4)GlcNAc(b1-3)Gal(b1-4)Glc
- procedure details: glycan array binding signal (z-score within array); higher = stronger binding
- condition description: glycan notation: IUPAC condensed, linker removed
Only a selection was taken, and the strongest signals are over-represented in it overall.
Would you mind labelling by glycan array binding signal (z-score)? At or over 3 is Fulfilled, under is Not fulfilled.

>  <binder>
LecB PA7 (Pseudomonas aeruginosa) (protein) MATQGVFTLPANTRFGVTAFANSSATQTVKVLVNNETAATFTGQSTNNAVIGSQVLNSGGGGKVQIQVSVNGRSSDLVSAQVILANELNVALVGSEDSTDNDYNDAVVVINWPLG

>  <assigned category>
Not fulfilled

$$$$
>  <binder>
SfaEH (Escherichia coli), Q1RDG5 (protein) LLCRNNQTGQVFNSGDTSFRVNVSPVVQYDKSISVLDLSQLVSCQNEDSTGQNYDYLKILKGSGFSPALDTKTYGRLDFTSRPTGYARQLPLQFDLQVTEAFYQYGVWKPFPAKLYLYPAPGVFGKVINNGDLLATLYVNKFSTKGQEAGERNFTWRFYATNDVYIQTGTCRVSSNNVKVDLPSYPGGPVTVPLTVRCDQTQSVSYTLSGPVTGSGNTVFANTAASGSGGVGIQLSDNVGPVPAGQPRSLGQVGSSPVSLGLKASYALTGQASPTPGAVQSVINVTFSYN

>  <assigned category>
Not fulfilled

$$$$
>  <binder>
RBMC1 (Vibrio cholerae) (protein) QQSQRVVTADNLMYLRSGFAIDAIGTTVNNLVGGPVQGTNGGVLRAPIALDQLQSVEVTSGLYNWGGYHIVAIKFTMKDGSSVLLGSTHYASNKKVETYTVPQGKRIKQINVWTGGWLVEGFQFVY

>  <assigned category>
Not fulfilled

$$$$
>  <binder>
AFL6 (Aspergillus fumigatus), Q4WKJ1 (protein) MSFHLTAEDIRIEDGHRLVARLRNADGDLQDASIDLNTCLGNDNGHFQWDGVDFSHSAQDVHFAIEGGGQVPVLRAQLANQDGEFQDADVNLSERIENINGEFVFH

>  <assigned category>
Not fulfilled

$$$$
>  <binder>
SSR1 (Sclerotium rolfsii), A0A0M3KL30 (protein) TYKITVRVYQTNPDAFFHPVEKTVWKYANGGTWTITDDQHVLTMGGSGTSGTLRFHADNGESFTATFGVHNYKRWCDIVTNLAADETGMVINQQYYSQKNREEARERQLSNYQVKNAKGRNFQIVYTEAEGNDLHANLIIG

>  <assigned category>
Fulfilled

$$$$
>  <binder>
Pwp2 (Candida glabrata) (protein) MGSSHHHHHHSSGLVPRGSHMASKNPVELNNVCTFPNDYGRIPGFTVLVGRLGLLISASDYKELLRYPGAFLIATQDTMTTSPNFELTGFPFFTGLYGLTVFPLDLLVELRGYFVPPNSGQYTFTLSDSDDAAIIFLGNPSAFPCGDLQNWPKPSEEDITVTDHLFPSRTLYLIEGVAYPMRIAYYNGIGAGRLNAAFIDPSGTRHTNWEGYIWQYDPCSTCTYS

>  <assigned category>
Not fulfilled

$$$$
